Assay: logP(acid) by reverse phase (C18) chromatography at pH 2.3
Type: physicochemical
Settings: reverse phase (C18) chromatography at pH 2.3
Property: Physical property logP (acid)

CSCC(C)NC(=O)c1c(Cl)cccc1C(=O)Nc1ccc(Cn2nc(C(F)(F)F)nc2SC(C)C)cc1C (centres unmarked) :: logP (acid) 4.13
CCSc1nc(C(F)(F)F)nn1Cc1ccc(NC(=O)c2cccc(Cl)c2C(=O)NC(C)CSC)c(C)c1 (centres unmarked) :: logP (acid) 4.13

* * *

Experiment: logP(neutral) by reverse phase chromatography, potassium dihydrogen phosphate / acetonitrile
Format: physicochemical
Details: potassium dihydrogen phosphate / acetonitrile
Kindly supply the reported logP (neutral) values for the records listed here.

Name the reported logP (neutral) value associated with the molecule Cc1nc(Cn2cc(C(F)(F)C(F)(F)F)c(C(F)(F)C(F)(F)F)n2)ccc1NC(=O)c1cccc(I)c1C(=O)NC(C)C[S+](C)[O-] (mixture of isomers)
3.08

Name the reported logP (neutral) value associated with the molecule CSC[C@H](C)NC(=O)c1c(Cl)cccc1C(=O)Nc1ccc(Cn2nc(C(F)(F)F)n(C)c2=O)nc1C
2.16

* * *

Property: melting point

Name the reported melting point value associated with the molecule Cc1cc(Cn2nc(C(F)(F)C(F)(F)F)nc2C(F)(F)F)ccc1NC(=O)c1cccc(Cl)c1C(=O)NC(C)(C)C=NO
203 to 206 °C

Name the reported melting point value associated with the molecule Cc1cc(Cn2nc(C(F)(F)C(F)(F)F)nc2C(F)(F)F)ccc1NC(=O)c1cccc(-c2cc(C(F)(F)F)cc(C(F)(F)F)c2)c1C(=O)N[C@@H](C)CS(C)(=O)=O
201 °C

Name the reported melting point value associated with the molecule Cc1cc(Cn2nc(C(F)(F)F)cc2C(F)(F)F)ccc1NC(=O)c1ccccc1C(=O)NC(C)C
170 to 172 °C

Name the reported melting point value associated with the molecule CC(C)NC(=O)c1ccccc1C(=O)Nc1ccc(Cn2nc(C(F)(F)F)cc2C(F)(F)F)cc1
176 to 178 °C

Name the reported melting point value associated with the molecule Cc1cc(Cn2nc(C(F)(F)F)cc2C(F)(F)F)ccc1NC(=O)c1cccc(Cl)c1C(=O)NC(C)(C)C(=O)O
179 to 184 °C

Name the reported melting point value associated with the molecule CSC[C@H](C)NC(=O)c1c(Cl)cccc1C(=O)Nc1ccc(Cn2c(C)nnc2C(F)(F)F)cc1C
168 to 170 °C

Name the reported melting point value associated with the molecule CCN(CC)C(=O)c1c(Cl)cccc1C(=O)Nc1ccc(Cn2nc(C(F)(F)F)cc2C(F)(F)F)cc1C
105 to 107 °C

Name the reported melting point value associated with the molecule CCC(C)NC(=O)c1cccc(Cl)c1C(=O)Nc1ccc(Cn2nc(C(F)(F)F)cc2C(F)(F)F)cc1C (stereo not shown)
211 to 212 °C

Name the reported melting point value associated with the molecule CCC(C)NC(=O)c1c(Cl)cccc1C(=O)Nc1ccc(Cn2nc(C(F)(F)F)cc2C(F)(F)F)cc1C (stereo not shown)
187 to 188 °C

Name the reported melting point value associated with the molecule Cc1cc(Cn2nc(C(F)(F)C(F)(F)F)nc2C(F)(F)F)ccc1NC(=O)c1cccc(Cl)c1C(=O)NC(C)(C)CO
105 to 110 °C

* * *

Assay: logP(acid) by reverse phase (C18) chromatography at pH 2.3
Assay type: physicochemical
Settings: reverse phase (C18) chromatography, pH 2.3
Property: logP (acid)

CCOC(=O)c1cn(Cc2ccc(NC(=O)c3cccc(Cl)c3C(=O)N[C@@H](C)CSC)c(C)c2)nc1C(F)(F)F :: logP (acid) 3.43
CSCC(C)NC(=O)c1c(Cl)cccc1C(=O)Nc1ccc(Cn2cc(C3=NOC(c4cc(Cl)cc(Cl)c4)(C(F)(F)F)C3)c(C(F)(F)F)n2)cc1C (mixture of isomers) :: logP (acid) 3.43
